PBM binding z-score for assorted sequences
- Tested on: PPARg:RXRa IVT, anti-PPARg (NR concentration 270 nM, RXRa partner concentration 90 nM)
- TEST: PBM binding z-score (relative to random genomic background probes); higher = stronger binding; sequences stand for … in GC…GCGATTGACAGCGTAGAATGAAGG
MEASURED_PARAMETER: PBM binding z-score

>>> df
                       query_sequence   measured_parameter  recorded_result
0  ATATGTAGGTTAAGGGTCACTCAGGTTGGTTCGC  PBM binding z-score             8.15
1  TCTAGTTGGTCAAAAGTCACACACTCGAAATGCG  PBM binding z-score             2.69
2  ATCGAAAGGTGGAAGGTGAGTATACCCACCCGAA  PBM binding z-score            0.561
3  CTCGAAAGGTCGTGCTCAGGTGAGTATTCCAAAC  PBM binding z-score             1.51
4  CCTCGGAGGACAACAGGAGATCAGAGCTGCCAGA  PBM binding z-score            -0.63

* * *

- System: RXRa homodimer (NR concentration 180 nM)
- TEST: PBM binding z-score (relative to random genomic background probes); higher = stronger binding; sequences stand for … in GC…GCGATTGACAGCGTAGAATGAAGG
Outcome label depends on PBM binding z-score relative to 0.8: at/above gives Criterion met, below gives Criterion not met.

>>> print(df.to_string())
                        query_sequence  assigned_category
 0  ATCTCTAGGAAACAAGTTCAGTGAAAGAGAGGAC  Criterion not met
 1  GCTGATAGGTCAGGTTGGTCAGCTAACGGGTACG      Criterion met
 2  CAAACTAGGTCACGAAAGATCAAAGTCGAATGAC      Criterion met
 3  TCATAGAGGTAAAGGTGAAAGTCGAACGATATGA      Criterion met
 4  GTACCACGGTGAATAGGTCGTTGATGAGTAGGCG  Criterion not met
 5  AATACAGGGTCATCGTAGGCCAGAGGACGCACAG      Criterion met
 6  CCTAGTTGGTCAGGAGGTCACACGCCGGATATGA      Criterion met
 7  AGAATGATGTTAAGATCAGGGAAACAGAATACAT  Criterion not met
 8  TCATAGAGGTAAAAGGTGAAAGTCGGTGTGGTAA      Criterion met
 9  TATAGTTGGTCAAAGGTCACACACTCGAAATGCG      Criterion met
10  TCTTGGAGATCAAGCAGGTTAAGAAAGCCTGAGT  Criterion not met
11  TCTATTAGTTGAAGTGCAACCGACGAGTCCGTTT  Criterion not met
12  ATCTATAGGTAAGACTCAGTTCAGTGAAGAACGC  Criterion not met
13  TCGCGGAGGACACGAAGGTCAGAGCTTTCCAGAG      Criterion met
14  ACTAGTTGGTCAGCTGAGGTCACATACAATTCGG      Criterion met
15  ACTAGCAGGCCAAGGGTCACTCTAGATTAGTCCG      Criterion met
16  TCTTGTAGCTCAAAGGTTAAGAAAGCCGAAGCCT      Criterion met
17  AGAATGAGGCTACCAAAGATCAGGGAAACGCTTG  Criterion not met
18  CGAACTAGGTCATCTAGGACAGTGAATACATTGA      Criterion met
19  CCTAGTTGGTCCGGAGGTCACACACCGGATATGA      Criterion met
20  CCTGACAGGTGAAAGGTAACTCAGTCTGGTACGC      Criterion met
21  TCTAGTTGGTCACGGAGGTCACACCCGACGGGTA      Criterion met
22  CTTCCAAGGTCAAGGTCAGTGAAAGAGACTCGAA      Criterion met
23  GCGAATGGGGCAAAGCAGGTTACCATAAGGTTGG  Criterion not met
24  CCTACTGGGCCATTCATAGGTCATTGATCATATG      Criterion met
25  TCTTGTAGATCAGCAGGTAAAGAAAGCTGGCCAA  Criterion not met
26  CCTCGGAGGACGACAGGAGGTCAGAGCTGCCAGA      Criterion met
27  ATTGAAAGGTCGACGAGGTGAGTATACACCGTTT      Criterion met
28  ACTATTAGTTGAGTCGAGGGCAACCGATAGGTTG  Criterion not met
29  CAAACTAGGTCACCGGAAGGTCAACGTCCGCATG      Criterion met
30  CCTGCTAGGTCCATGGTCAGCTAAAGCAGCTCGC  Criterion not met
31  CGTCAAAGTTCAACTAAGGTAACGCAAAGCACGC      Criterion met
32  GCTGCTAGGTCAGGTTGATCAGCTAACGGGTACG      Criterion met
33  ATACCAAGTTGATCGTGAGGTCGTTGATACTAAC      Criterion met
